For Mu-type opioid receptor (Cavia porcellus), measured pKi is reported for the entries below.
Entry type: numeric. Quantity: pKi, the -log10 of concentration in molar units.

Example entries begin here.
COCCN1CC[C@]23CCCC[C@H]2[C@H]1Cc1cc(O)ccc13 :: 9.96
N#CCCN1CC[C@]23CCCC[C@H]2[C@H]1Cc1cc(O)ccc13 :: 9.48

Prompt line: # get_value(readout='pKi', item= "C=CCN1CC[C@]23CCCC[C@H]2[C@H]1Cc1cc(O)ccc13" )
Response line: 9.47

Prompt line: Repeat with "Oc1ccc2c(c1)C[C@@H]1[C@@H]3CCCC[C@]23CCN1CC=CI"
Response line: 9.38

Prompt line: Repeat with "Oc1ccc2c(c1)C[C@@H]1[C@@H]3CCCC[C@]23CCN1CCCF"
Response line: 9.74

Prompt line: Repeat with "O=C(CCN1CC[C@]23CCCC[C@H]2[C@H]1Cc1cc(O)ccc13)c1cccs1"
Response line: 9.57

###

molecular target: Opioid receptors; mu & kappa (Homo sapiens) (UniProt P41145+P35372); assay: Selectivity ratio of kappa opioid receptor to that of mu opioid receptor in guinea pig brain membranes; assay type: cell membranes; conditions: Cavia porcellus; target entry is the homologue from another species
Sequence (P35372 whole entry, looked up): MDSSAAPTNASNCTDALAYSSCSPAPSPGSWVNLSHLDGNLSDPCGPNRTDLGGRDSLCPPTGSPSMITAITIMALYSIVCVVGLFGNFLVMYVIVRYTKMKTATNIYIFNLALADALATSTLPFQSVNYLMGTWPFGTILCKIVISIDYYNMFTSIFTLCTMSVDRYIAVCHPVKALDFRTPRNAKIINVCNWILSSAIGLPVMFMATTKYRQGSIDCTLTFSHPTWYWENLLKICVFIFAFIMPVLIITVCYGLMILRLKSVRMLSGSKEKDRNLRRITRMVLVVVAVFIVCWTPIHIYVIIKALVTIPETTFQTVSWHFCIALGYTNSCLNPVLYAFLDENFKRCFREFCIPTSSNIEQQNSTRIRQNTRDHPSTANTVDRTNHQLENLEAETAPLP
Sequence (P41145 whole entry, looked up): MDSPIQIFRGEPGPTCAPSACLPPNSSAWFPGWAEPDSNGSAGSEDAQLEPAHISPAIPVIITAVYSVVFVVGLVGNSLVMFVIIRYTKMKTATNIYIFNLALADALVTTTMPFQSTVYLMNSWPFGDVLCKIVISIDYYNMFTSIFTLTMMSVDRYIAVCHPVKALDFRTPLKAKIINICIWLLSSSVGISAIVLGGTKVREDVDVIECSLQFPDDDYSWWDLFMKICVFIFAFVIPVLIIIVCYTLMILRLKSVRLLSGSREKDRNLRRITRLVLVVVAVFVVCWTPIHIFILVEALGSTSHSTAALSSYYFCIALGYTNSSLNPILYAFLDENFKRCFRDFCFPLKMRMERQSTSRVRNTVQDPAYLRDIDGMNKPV
Entries annotated with measured Selectivity
Please give only the number in your answer, with no unit.

Example entries begin here.
COCCN1CC[C@]23CCCC[C@H]2[C@H]1Cc1cc(O)ccc13 :: 1
Oc1ccc2c(c1)C[C@@H]1[C@@H]3CCCC[C@]23CCN1CCC(O)c1ccco1 (stereo not given in full) :: 0.35
Oc1ccc2c(c1)C[C@@H]1[C@@H]3CCCC[C@]23CCN1Cc1ccco1 :: 4
CCOCCN1CC[C@]23CCCC[C@H]2[C@H]1Cc1cc(O)ccc13 :: 0.8
N#CCCN1CC[C@]23CCCC[C@H]2[C@H]1Cc1cc(O)ccc13 :: 1.4

Prompt line: # get_value(readout='Selectivity', item= "Oc1ccc2c(c1)C[C@@H]1[C@@H]3CCCC[C@]23CCN1CCOc1ccccc1" )
Response line: 0.06

Prompt line: Repeat with "CC(C)CN1CC[C@]23CCCC[C@H]2[C@H]1Cc1cc(O)ccc13"
Response line: 3

Prompt line: Repeat with "CN1CC[C@]23CCCC[C@H]2[C@H]1Cc1ccc(O)cc13"
Response line: 0.09

Prompt line: Repeat with "Oc1ccc2c(c1)C[C@@H]1[C@@H]3CCCC[C@]23CCN1CCc1ccccc1"
Response line: 0.092

Prompt line: Repeat with "C#CCN1CC[C@]23CCCC[C@H]2[C@H]1Cc1ccc(O)cc13"
Response line: 1

###

Entries annotated with measured Selectivity
target: Opioid receptors; delta & kappa (Homo sapiens) (UniProt P41145+P41143); assay: Selectivity ratio of kappa opioid receptor to that of delta opioid receptor in guinea pig brain membranes; format: cell membranes; details: Cavia porcellus; target entry is the homologue from another species
Sequence (P41143 whole entry, looked up): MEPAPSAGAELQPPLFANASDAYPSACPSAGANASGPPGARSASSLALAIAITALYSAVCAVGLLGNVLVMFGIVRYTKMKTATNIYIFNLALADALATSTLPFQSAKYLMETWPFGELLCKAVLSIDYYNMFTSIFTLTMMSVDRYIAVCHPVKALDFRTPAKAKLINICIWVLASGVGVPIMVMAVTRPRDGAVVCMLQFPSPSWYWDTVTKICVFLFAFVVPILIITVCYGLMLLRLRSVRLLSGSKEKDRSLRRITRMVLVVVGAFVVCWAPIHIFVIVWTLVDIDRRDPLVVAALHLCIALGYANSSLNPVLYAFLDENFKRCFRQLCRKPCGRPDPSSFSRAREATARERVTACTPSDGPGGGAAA
Sequence (P41145 whole entry, looked up): as the sequence (P41145 whole entry, looked up) above
Please give only the number in your answer, with no unit.

Example entries begin here.
O=C(CCN1CC[C@]23CCCC[C@H]2[C@H]1Cc1cc(O)ccc13)c1ccco1 :: 5
Oc1ccc2c(c1)C[C@@H]1[C@@H]3CCCC[C@]23CCN1CCCF :: 10
CC(C)CN1CC[C@]23CCCC[C@H]2[C@H]1Cc1cc(O)ccc13 :: 35
N#CCCCN1CC[C@]23CCCC[C@H]2[C@H]1Cc1cc(O)ccc13 :: 8
Oc1ccc2c(c1)C[C@@H]1[C@@H]3CCCC[C@]23CCN1CCOc1ccccc1 :: 2
Oc1ccc2c(c1)C[C@@H]1[C@@H]3CCCC[C@]23CCN1Cc1ccccc1 :: 220
Oc1ccc2c(c1)C[C@@H]1[C@@H]3CCCC[C@]23CCN1C/C=C/I :: 730
Oc1ccc2c(c1)[C@@]13CCCC[C@H]1[C@@H](C2)N(CC1CCC1)CC3 :: 18

Prompt line: # get_value(readout='Selectivity', item= "Oc1ccc2c(c1)C[C@@H]1[C@@H]3CCCCC23CCN1CC1CCCC1" )
Response line: 33

Prompt line: Repeat with Oc1ccc2c(c1)C[C@@H]1[C@@H]3CCCC[C@]23CCN1CCC(O)c1ccco1 (stereo not given in full)
Response line: 2

Prompt line: Repeat with "O=C(CCN1CC[C@]23CCCC[C@H]2[C@H]1Cc1cc(O)ccc13)c1cccs1"
Response line: 2

Prompt line: Repeat with "Oc1ccc2c(c1)C[C@@H]1[C@@H]3CCCC[C@]23CCN1Cc1ccco1"
Response line: 65

Prompt line: Repeat with "Oc1ccc2c(c1)C[C@@H]1[C@@H]3CCCC[C@]23CCN1CCc1ccccc1"
Response line: 2
